Values compiled from patent US20140162945A1.

target: human GLP-1 receptor (human, UniProt P43220 24-463); test: cell-based or functional assay
Sequence (P43220 24-463): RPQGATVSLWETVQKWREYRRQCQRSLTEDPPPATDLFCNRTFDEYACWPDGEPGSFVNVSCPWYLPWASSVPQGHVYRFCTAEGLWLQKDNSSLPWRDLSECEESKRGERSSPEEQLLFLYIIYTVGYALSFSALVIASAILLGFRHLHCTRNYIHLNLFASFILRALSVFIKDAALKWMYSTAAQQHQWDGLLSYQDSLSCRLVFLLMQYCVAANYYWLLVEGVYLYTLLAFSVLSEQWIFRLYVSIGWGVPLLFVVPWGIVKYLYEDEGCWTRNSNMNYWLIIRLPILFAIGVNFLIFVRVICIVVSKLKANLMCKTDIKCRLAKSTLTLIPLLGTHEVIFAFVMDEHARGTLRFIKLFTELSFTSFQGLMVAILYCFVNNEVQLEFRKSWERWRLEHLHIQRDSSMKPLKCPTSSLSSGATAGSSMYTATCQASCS
Where no end group is shown, it is not given here. [ ]: non-standard residue; d: D form. Phe(4-NO2) = N[C@@H](Cc1ccc([N+](=O)[O-])cc1)C(=O)O; Nle = CCCC[C@H](N)C(=O)O; Aib = CC(C)(N)C(=O)O
Property: EC50, GLP-1 Receptor cAMP induction; scope: individual binders
The reply should be a number in nM, with the unit left off.

Before answering, review these 2 worked examples.
# binder, readout-label, unit-label, value-reported
data = [
    ("Y[Aib]EGTFTSDYSIY[Nle]EKEAQQDFVNWLLAQ-NH2 [Analog 020]", "EC50, GLP-1 Receptor cAMP induction", "nM", 830),
    ("Y[Aib]EGTFTSDYSI[Phe(4-NO2)][Nle]EKIHQQDFVNWLLAQ-NH2 [Analog 008]", "EC50, GLP-1 Receptor cAMP induction", "nM", 1580),
]

Now consider the entry below.
Task item: // EC50, GLP-1 Receptor cAMP induction lookup, key: Y[Aib]EGTFTSDYSIYMEKIHQQDFVNWLLAQ-NH2 [Analog 003]
Reply: 483
